Readings of GI50 for the listed molecules
# System: COLO 205
# Procedure Text: NCI tumour cell line growth inhibition, 48 h
Calls of active or inactive are those of the source. Cut-off read from the data, not from the text of the source: active = GI50 up to about 1.1 µM and inactive = higher.
Test Readout: GI50

molecule="CC(C)C(Sc1nc(-c2ccccc2)c(-c2ccccc2)[nH]1)C(=O)N/N=C/c1ccc(Cl)cc1 (centres undefined)" study_target="COLO 205" result="17.7 µM (inactive)"
molecule=Cc1ccc(S(=O)(=O)NC(=O)NC23CC4CC(CC(F)(C4)C2)C3)cc1 study_target="COLO 205" result="> 100 µM (inactive)"
molecule=COc1ccc(-c2onc(-c3c(C)cc(C)cc3C)c2C2=NCCN2)cc1 study_target="COLO 205" result="20.4 µM (inactive)"
molecule=O=C(/C=C/c1ccccc1)C[C@@H](O)C[C@@H]1CC=CC(=O)O1 study_target="COLO 205" result="5.5 µM (inactive)"
molecule=N#CCCC(C#N)(C#N)CCC#N study_target="COLO 205" result="> 100 µM (inactive)"
molecule="O=C1c2ccccc2C(=O)c2c(NCC(O)CO)ccc(NCC(O)CO)c21 (centres undefined)" study_target="COLO 205" result="37.2 µM (inactive)"
molecule=O=C(O)c1[nH]c2c([N+](=O)[O-])cc([N+](=O)[O-])cc2c1C(=O)O study_target="COLO 205" result="> 100 µM (inactive)"
molecule=COC(=O)[C@]1(C)CCC[C@@]2(C)[C@@H]3C[C@@H]4[C@H]5C[C@@]3(CC[C@@H]21)C[C@@]45C study_target="COLO 205" result="20.5 µM (inactive)"
molecule=Nc1ncnc2c1ncn2[C@@H]1O[C@H](C(=O)O)[C@@H](O)[C@H]1O study_target="COLO 205" result="> 100 µM (inactive)"
